Molecular target: T1, K758A (Drosophila melanogaster, UniProt Q9W1K4 512-819, K758A)
T1 sequence: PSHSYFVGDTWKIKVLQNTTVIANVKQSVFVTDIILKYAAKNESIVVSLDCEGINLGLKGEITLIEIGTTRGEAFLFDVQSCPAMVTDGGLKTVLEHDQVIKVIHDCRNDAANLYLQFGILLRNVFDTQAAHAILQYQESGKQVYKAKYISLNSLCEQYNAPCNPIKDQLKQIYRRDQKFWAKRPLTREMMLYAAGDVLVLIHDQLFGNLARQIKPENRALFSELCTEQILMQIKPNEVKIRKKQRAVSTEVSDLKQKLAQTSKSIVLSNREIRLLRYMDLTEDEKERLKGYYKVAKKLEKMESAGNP
Test: fluorescence anisotropy; FA: 20 mM HEPES-NaOH pH 7.5, 100 mM NaCl, 10% glycerol, 20 C, 10 nM FAM-RNA; competition: 150 nM Egl512-819 + 10 nM FAM-K10 TLS, same buffer
Details: protein: recombinant; tags: N-terminal GST; label: 5'-6-FAM; hairpin with two bulges

# BINDER, Kd
rows = [
    ("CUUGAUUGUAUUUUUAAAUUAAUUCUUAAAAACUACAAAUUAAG (structured_RNA) [K10 TLS (FAM)]", "319 nM"),
]
